Data provenance: the supplement of paper PMC13380429

Listing of recorded inhibition of SARS-CoV-2 cytopathic effect by entry.
# System: Vero E6 infected with SARS-CoV-2
# EXPERIMENTAL PROTOCOL: inhibition of SARS-CoV-2 cytopathic effect; higher = more antiviral protection, active = above 15
# DETAILS: 100 nM; 48 h
READOUT KIND: inhibition of SARS-CoV-2 cytopathic effect

{"columns": ["COMPOUND", "TARGET OF ASSAY", "MEASURED VALUE"],
 "data": [
  ["CN1C(C)(C)CCCC1(C)C", "Vero E6 infected with SARS-CoV-2", "-4.34% (inactive)"],
  ["CN1CCN(Cc2ccc(-c3cnc4[nH]cc(-c5ccc6[nH]ccc6c5)c4c3)cc2)CC1", "Vero E6 infected with SARS-CoV-2", "3.09% (inactive)"],
  ["O=C(O)/C=C/c1ccc(O)c(O)c1", "Vero E6 infected with SARS-CoV-2", "0.87% (inactive)"],
  ["C/C(O)=C(\\C#N)C(=O)Nc1ccc(C(F)(F)F)cc1 [teriflunomide]", "Vero E6 infected with SARS-CoV-2", "1.22% (inactive)"],
  ["O=C(c1ccc(F)cc1)C1CCN(CCCCc2ccccc2)CC1", "Vero E6 infected with SARS-CoV-2", "-0.19% (inactive)"]
]}

----------
# Tested on: Vero E6 infected with SARS-CoV-2
# EXPERIMENTAL PROTOCOL: morphology score (similarity to uninfected cells); higher = more like uninfected cells
# DETAILS: 24 h
Assign rule met to entries whose morphology score meets or exceeds 0.06; assign rule not met to the rest.

{"columns": ["COMPOUND", "TARGET OF ASSAY", "CLASS"],
 "data": [
  ["Cc1c(Cl)c(C)[n+]([O-])c(Cl)c1-c1noc(-c2cc(O)c(O)c([N+](=O)[O-])c2)n1 [opicapone] (10 µM)", "Vero E6 infected with SARS-CoV-2", "rule met"],
  ["NC1=N[C@@]2(c3cc(NC(=O)c4ccc(F)cn4)ccc3F)COC[C@H]2CS1 (10 µM)", "Vero E6 infected with SARS-CoV-2", "rule not met"],
  ["Nn1cnc2cc3ccccc3cc2c1=O [centazolone] (10 µM)", "Vero E6 infected with SARS-CoV-2", "rule not met"],
  ["O=C(c1ccc(F)cc1)C1CCN(CCn2c(=S)[nH]c3ccccc3c2=O)CC1 [altanserin] (10 µM)", "Vero E6 infected with SARS-CoV-2", "rule not met"],
  ["CSc1ccccc1OCC(O)CNC(C)C (centres undefined) [tiprenolol] (10 µM)", "Vero E6 infected with SARS-CoV-2", "rule not met"],
  ["COC1(C2=NCCN2)COc2ccccc2O1 (centres undefined) (10 µM)", "Vero E6 infected with SARS-CoV-2", "rule met"],
  ["Fc1ccc(-c2cncc(CN3CCN(c4cccc5c4OCCO5)CC3)c2)cc1 [adoprazine] (10 µM)", "Vero E6 infected with SARS-CoV-2", "rule met"],
  ["CC(CNC(=O)c1cccnc1)NC(=O)c1cccnc1 (centres undefined) [nicaraven] (10 µM)", "Vero E6 infected with SARS-CoV-2", "rule not met"]
]}

----------
# Test system: Vero E6 infected with SARS-CoV-2
# EXPERIMENTAL PROTOCOL: inhibition of SARS-CoV-2 cytopathic effect; higher = more antiviral protection, active = above 15
# DETAILS: 1 nM; 48 h
READOUT KIND: inhibition of SARS-CoV-2 cytopathic effect (%)

{"columns": ["COMPOUND", "MEASURED VALUE"],
 "data": [
  ["CCN(CC)CCOC(=O)C1(c2ccc([N+](=O)[O-])cc2)CCCC1 [nitrocaramiphen]", -3.06],
  ["Cc1cccc(Cc2c[nH]cn2)c1C [detomidine]", -2.36],
  ["CCCCCCCCCCCCCCCCCC(=O)OCC(O)CO (stereo not given) [monostearin]", 3.45],
  ["CC(C)(CO)c1cc2cc(NC(=O)C3(c4ccc5c(c4)OC(F)(F)O5)CC3)c(F)cc2n1C[C@@H](O)CO [tezacaftor]", 0.35],
  ["N[C@@H](CSS(=O)(=O)O)C(=O)O [S-sulfo-L-cysteine]", -0.33],
  ["CCCNC(=O)N1N=C(c2ccc(N)cc2)c2cc3c(cc2C1C)OCO3 (stereo not given)", -4.65],
  ["COc1ccccc1N1CCN(CCN2C(=O)CC3(CCCC3)CC2=O)CC1", 0.12],
  ["CCOC(=O)c1ncn2c1CN(C)C(=O)c1cc(F)ccc1-2 [flumazenil]", -5.56],
  ["CCOC(=O)/C=C(C)/C=C/C=C(C)/C=C/c1c(C)cc(OC)c(C)c1C [etretinate]", -2.16],
  ["CC(C)NCCCn1c(Sc2cc3c(cc2I)OCO3)nc2c(N)ncnc21", -3.36]
]}

----------
# System: Vero E6 infected with SARS-CoV-2
# EXPERIMENTAL PROTOCOL: morphology score (similarity to uninfected cells); higher = more like uninfected cells
# DETAILS: 24 h
morphology score values by entry

{"columns": ["COMPOUND", "morphology score"],
 "data": [
  ["C/C=C(/C)C(=O)O[C@H]1C(C)=C[C@]23C(=O)[C@@H](C=C(CO)[C@@H](O)[C@]12O)[C@H]1[C@@H](C[C@H]3C)C1(C)C [ingenol-mebutate] (0.833333 µM)", -0.298],
  ["C[C@H](CCC(=O)NCCS(=O)(=O)O)[C@H]1CC[C@H]2[C@@H]3[C@H](O)C[C@@H]4C[C@H](O)CC[C@]4(C)[C@H]3C[C@H](O)[C@]12C [taurocholate] (10 µM)", -0.0884],
  ["Cc1nc(C)c(-c2ccc(C3CCC(CC(=O)O)CC3)cc2)nc1C(N)=O (configuration not stated) (10 µM)", 0.134],
  ["COc1cccc(-c2ccc([C@@H](Oc3cc(-c4ccc(C[C@H](N)C(=O)O)cc4)nc(N)n3)C(F)(F)F)cc2)c1 (10 µM)", 0.0975],
  ["CCCC(=O)N1CCCN(c2nc(N)c3cc(OC)c(OC)cc3n2)CC1 [bunazosin] (10 µM)", 0.0754],
  ["CCOC(=O)[C@H](CCc1ccccc1)N[C@H]1CS[C@H](c2cccs2)CN(CC(=O)O)C1=O [temocapril] (10 µM)", 0.0304],
  ["O=C(O)c1cccnc1Nc1cccc(C(F)(F)F)c1 [niflumic-acid] (10 µM)", 0.127]
]}

----------
# Tested on: Vero E6 infected with SARS-CoV-2
# EXPERIMENTAL PROTOCOL: inhibition of SARS-CoV-2 cytopathic effect; higher = more antiviral protection, active = above 15
# DETAILS: 833.33 nM; 48 h
Here, each record is paired with measured inhibition of SARS-CoV-2 cytopathic effect data.
READOUT KIND: inhibition of SARS-CoV-2 cytopathic effect (%)

{"columns": ["COMPOUND", "MEASURED VALUE"],
 "data": [
  ["O=C(O)CCCC[C@@H]1SC[C@@H]2NC(=O)N[C@@H]21 [biotin]", 0.93],
  ["COc1ccc2c(c1)CN(C)CC2c1ccc(Cl)c(Cl)c1 (stereo not drawn) [diclofensine]", 3.57],
  ["CCOC(=O)COc1ccc2c(=O)cc(-c3ccccc3)oc2c1 [efloxate]", -1.24],
  ["COc1ccc(C(C)=O)c(O)c1 [paeonol]", 0.69],
  ["CC(C)(c1ccc(O)cc1)c1ccc(O)cc1 [bisphenol-A]", 1.31],
  ["CO/N=C1\\C[C@]2(C[C@@H]3C[C@@H](C/C=C(\\C)C[C@@H](C)/C=C/C=C4\\CO[C@@H]5[C@H](O)C(C)=C[C@@H](C(=O)O3)[C@]45O)O2)O[C@H](/C(C)=C/C(C)C)[C@H]1C [moxidectin]", -4.07],
  ["CC1(C)CC[C@]2(C(=O)O)CC[C@]3(C)[C@H](C(=O)C=C4[C@@]5(C)C=C(C#N)C(=O)C(C)(C)[C@@H]5CC[C@]43C)[C@@H]2C1 [bardoxolone]", 3.36],
  ["OC[C@H]1O[C@@H](O[C@@H]2[C@H](O)[C@@H](O)[C@H](O[C@H]3[C@H](O)[C@@H](O)C(O)O[C@@H]3CO)O[C@@H]2CO)[C@H](O)[C@@H](O)[C@H]1O (stereo partly drawn) [4-galactosyllactose]", 0.18],
  ["O=C(O)Cc1ccc(CCNS(=O)(=O)c2ccc(Cl)cc2)cc1 [daltroban]", -0.76],
  ["NC(=O)[C@@H](CC1CC1)[C@@H](CCC(F)(F)F)C(=O)N[C@H]1N=C(c2ccccc2)c2cccc(F)c2NC1=O", -3.05],
  ["CC(CN(C)C)CN1c2ccccc2CCc2ccccc21 (stereo not drawn) [trimipramine]", -2.02],
  ["CC(=O)OC[C@H]1O[C@@](COC(C)=O)(O[C@H]2O[C@H](COC(C)=O)[C@@H](OC(C)=O)[C@H](OC(C)=O)[C@H]2OC(C)=O)[C@@H](OC(C)=O)[C@@H]1OC(C)=O [sucrose-octaacetate]", -0.47],
  ["Cc1cc(CC(=O)O)n(C)c1C(=O)c1ccc(Cl)cc1 [zomepirac]", -0.27],
  ["C[C@H](NC(=O)/C(C#N)=C/c1cccc(Br)n1)c1ccccc1", 5.36],
  ["Oc1ccc(-c2c(-c3ccccc3)nn3c(C(F)(F)F)cc(C(F)(F)F)nc23)cc1", -1.7],
  ["C[N+]1(C)CCc2cc3c(cc2[C@H]1[C@@H]1OC(=O)c2c1ccc1c2OCO1)OCO3 [bicuculline-methochloride-(-)]", 3.59],
  ["NC(=O)c1ncn([C@@H]2O[C@H](CO)[C@@H](O)[C@H]2O)c1O [mizoribine]", 0.29],
  ["CCC(=O)OCN1C(=O)C=CC1=O", 1.73],
  ["CCS(=O)(=O)Nc1ccc2c(c1)/C(=C(/Nc1ccc(CN3CCCCC3)cc1)c1ccccc1)C(=O)N2 [hesperadin]", -9.14],
  ["Nc1nc2c(ccc3ccccc32)s1", -0.09],
  ["C=C[C@]1(C)CC[C@@H](C(=C)C)C[C@H]1C(=C)C [beta-elemene]", 0.7],
  ["C[C@H](N)Cc1cccc(O)c1 [gepefrine]", 1.38],
  ["COc1ccc(CNC(=O)c2sc3nc(C)cc(C)c3c2N)cc1", 2.96],
  ["CNC(=O)CN1CCC(Oc2cc3c(Nc4cccc(Cl)c4F)ncnc3cc2OC)CC1", -7.8],
  ["O=S(=O)(O)c1ccc(-c2c3nc(c(-c4ccc(S(=O)(=O)O)cc4)c4ccc([nH]4)c(-c4ccc(S(=O)(=O)O)cc4)c4nc(c(-c5ccc(S(=O)(=O)O)cc5)c5ccc2[nH]5)C=C4)C=C3)cc1", -6.51],
  ["Nc1ncnc2c1c(-c1ccc(Cl)cc1)nn2-c1cccc(-c2cnnn2Cc2cccc(-c3ccccc3)c2)c1", -2.27],
  ["CC(C)(C)[C@]1(O)CCN2C[C@H]3c4ccccc4CCc4cccc(c43)[C@@H]2C1 [butaclamol]", 1.72],
  ["CN(Cc1ccc(C(C)(C)C)cc1)Cc1cccc2ccccc12 [butenafine]", 2.62],
  ["Cc1c(C(=O)NN2CCCCC2)nn(-c2ccc(Cl)cc2Cl)c1-c1ccc(Cl)cc1 [rimonabant]", 0.01],
  ["Cc1cc2sc(NC(=O)Cc3ccccc3)nc2cc1Cl", 0.81],
  ["CC1(C)CCC(C)(C)c2cc(NC(=O)c3ccc(C(=O)O)cc3)ccc21 [tamibarotene]", 0.87],
  ["C[N+]1([O-])[C@@H]2CC[C@H]1C[C@@H](OC(=O)C(CO)c1ccccc1)C2 (stereo partly drawn) [atropine-oxide]", -2.02],
  ["O=C1NC(=O)C(c2ccccc2)(c2ccccc2)N1 [phenytoin]", -0.84]
]}
